Field: inhibition at 1 µM. Provide a value for each of the compounds that follow.
# assayed.target: c-Src kinase (Homo sapiens)
# Construct: purchased Millipore (KinaseProfiler Service)
# Sequence (P12931 whole entry): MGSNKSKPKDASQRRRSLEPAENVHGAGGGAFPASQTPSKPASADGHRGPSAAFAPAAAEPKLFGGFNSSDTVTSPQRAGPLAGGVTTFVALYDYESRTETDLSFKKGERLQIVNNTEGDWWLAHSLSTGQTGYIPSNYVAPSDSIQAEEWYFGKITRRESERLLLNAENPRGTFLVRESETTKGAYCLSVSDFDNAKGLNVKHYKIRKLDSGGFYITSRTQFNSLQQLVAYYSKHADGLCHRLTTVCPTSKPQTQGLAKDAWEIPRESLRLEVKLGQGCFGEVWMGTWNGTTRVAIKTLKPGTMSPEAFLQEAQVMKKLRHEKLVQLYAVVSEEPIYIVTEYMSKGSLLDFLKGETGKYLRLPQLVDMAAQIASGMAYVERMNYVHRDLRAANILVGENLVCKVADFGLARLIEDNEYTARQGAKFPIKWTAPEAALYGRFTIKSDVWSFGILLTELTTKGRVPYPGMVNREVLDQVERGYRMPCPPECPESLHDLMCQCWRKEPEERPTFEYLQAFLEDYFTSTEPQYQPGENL
# assay.explanation: KinaseProfiler kinase inhibition assay, c-Src
# Format: biochemical
# condition.notes: 1 μM compound; read-out: % Inhibition @1 μM cSrc
One number for each entry, in %.

CCN1CCN(c2ccc(Nc3ncnc(Oc4ccc5[nH]c(C)cc5c4F)c3C(N)=O)cc2)CC1 [Compound 68] ... 85
Cc1cc2c(F)c(Oc3ncnc(Nc4ccc(N5CCN(C)CC5)cc4)c3N)ccc2[nH]1 [Compound 46] ... 12
Cc1cc2c(F)c(Oc3ncnc(Nc4ccc(N5CCN(C)CC5)cn4)c3Cl)ccc2[nH]1 [Compound 34] ... 9

Lab note: next compound to report on.
## Task # inhibition at 1 µM lookup, item Cc1cc2c(F)c(Oc3cc(Nc4ccc(N5CCNCC5)cc4)ncn3)ccc2[nH]1 [Example 11]
## Result 59

----------
# assayed.target: KDR kinase (Homo sapiens)
# Construct: purchased Millipore (KinaseProfiler Service)
# Sequence (P35968 20-1356): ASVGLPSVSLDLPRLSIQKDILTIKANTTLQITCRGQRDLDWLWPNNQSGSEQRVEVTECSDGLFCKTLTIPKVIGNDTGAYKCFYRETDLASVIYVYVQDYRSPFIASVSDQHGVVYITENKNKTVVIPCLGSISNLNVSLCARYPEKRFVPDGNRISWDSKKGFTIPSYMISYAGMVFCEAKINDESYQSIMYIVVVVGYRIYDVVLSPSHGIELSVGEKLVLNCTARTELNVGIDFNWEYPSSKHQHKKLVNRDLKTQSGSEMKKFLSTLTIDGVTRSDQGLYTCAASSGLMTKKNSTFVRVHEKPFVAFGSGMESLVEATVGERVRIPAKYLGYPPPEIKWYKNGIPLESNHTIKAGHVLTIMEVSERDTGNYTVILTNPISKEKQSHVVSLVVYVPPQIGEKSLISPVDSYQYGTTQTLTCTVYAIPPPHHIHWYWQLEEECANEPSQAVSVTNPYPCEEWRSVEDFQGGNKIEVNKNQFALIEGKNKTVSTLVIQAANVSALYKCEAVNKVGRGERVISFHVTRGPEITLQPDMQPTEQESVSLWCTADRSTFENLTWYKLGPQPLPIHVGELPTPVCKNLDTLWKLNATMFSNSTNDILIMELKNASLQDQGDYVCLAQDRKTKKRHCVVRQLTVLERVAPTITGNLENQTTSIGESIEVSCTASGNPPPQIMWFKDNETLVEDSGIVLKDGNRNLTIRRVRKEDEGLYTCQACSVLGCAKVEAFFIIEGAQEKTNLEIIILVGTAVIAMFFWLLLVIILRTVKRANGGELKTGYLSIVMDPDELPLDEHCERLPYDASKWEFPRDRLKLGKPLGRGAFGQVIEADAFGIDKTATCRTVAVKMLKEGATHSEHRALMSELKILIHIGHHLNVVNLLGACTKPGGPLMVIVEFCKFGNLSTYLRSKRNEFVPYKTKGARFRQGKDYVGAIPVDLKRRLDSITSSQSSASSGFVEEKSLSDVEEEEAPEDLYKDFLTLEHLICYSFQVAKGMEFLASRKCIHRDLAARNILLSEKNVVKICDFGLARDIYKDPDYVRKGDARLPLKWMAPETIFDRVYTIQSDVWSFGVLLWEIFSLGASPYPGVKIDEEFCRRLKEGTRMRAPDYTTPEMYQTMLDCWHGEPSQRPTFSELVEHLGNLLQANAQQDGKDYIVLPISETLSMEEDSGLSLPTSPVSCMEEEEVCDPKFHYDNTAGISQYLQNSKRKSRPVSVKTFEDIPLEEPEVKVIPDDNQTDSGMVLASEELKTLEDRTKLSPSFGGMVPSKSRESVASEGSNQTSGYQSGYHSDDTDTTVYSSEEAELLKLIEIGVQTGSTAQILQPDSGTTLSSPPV
# assay.explanation: KinaseProfiler kinase inhibition assay, KDR
# Type: biochemical
# condition.notes: 1 μM compound
Consider the following compounds; for each one, report its inhibition at 1 µM.
One number for each entry, in %.

Cc1cc2c(F)c(Oc3cc(N4CCN(c5ccc(N)cc5F)CC4)ncn3)ccc2[nH]1 ... 20
Cc1cc2c(F)c(Oc3ncnc(Nc4ccc(N5CCN(C)CC5)cn4)c3F)ccc2[nH]1 ... 79
CCN1CCN(c2ccc(Nc3ncnc(Oc4ccc5[nH]c(C)cc5c4F)c3F)nc2)CC1 ... 70

Give inhibition at 1 µM for each of the items listed below.
1. CNC(=O)c1ccc(Nc2cc(Oc3ccc4[nH]c(C)cc4c3F)ncn2)cc1
2. Cc1cc2c(F)c(Oc3ncnc(Nc4ccc(N5CCN(C)CC5)cn4)c3Cl)ccc2[nH]1
3. Cc1cc2c(F)c(Oc3ncnc(Nc4ccc(N5CCN(C)CC5)cc4)c3Cl)ccc2[nH]1

## Result
[98, 96, 20]

# map each compound to its inhibition at 1 µM
1. CCN1CCN(c2ccc(Nc3ncnc(Oc4ccc5[nH]c(C)cc5c4F)c3F)cc2)CC1
2. Cc1cc2c(F)c(Oc3ncnc(Nc4ccc(N5CCN(C)CC5)cc4)c3C#N)ccc2[nH]1
3. CCN1CCN(c2ccc(Nc3ncnc(Oc4cc(F)c5[nH]c(C)cc5c4F)c3C#N)cc2)CC1
4. CC(=O)N1CCN(c2ccc(Nc3cc(Oc4cc(F)c5[nH]c(C)cc5c4F)ncn3)cc2)CC1

## Result
1. 95
2. 97
3. 93
4. 97

----------
Give measured inhibition at 1 µM for each item. Keep answers brief.
# assayed.target: Abl kinase (Homo sapiens, UniProt P00519)
# Construct: purchased Millipore (KinaseProfiler Service)
# Sequence (P00519 whole entry): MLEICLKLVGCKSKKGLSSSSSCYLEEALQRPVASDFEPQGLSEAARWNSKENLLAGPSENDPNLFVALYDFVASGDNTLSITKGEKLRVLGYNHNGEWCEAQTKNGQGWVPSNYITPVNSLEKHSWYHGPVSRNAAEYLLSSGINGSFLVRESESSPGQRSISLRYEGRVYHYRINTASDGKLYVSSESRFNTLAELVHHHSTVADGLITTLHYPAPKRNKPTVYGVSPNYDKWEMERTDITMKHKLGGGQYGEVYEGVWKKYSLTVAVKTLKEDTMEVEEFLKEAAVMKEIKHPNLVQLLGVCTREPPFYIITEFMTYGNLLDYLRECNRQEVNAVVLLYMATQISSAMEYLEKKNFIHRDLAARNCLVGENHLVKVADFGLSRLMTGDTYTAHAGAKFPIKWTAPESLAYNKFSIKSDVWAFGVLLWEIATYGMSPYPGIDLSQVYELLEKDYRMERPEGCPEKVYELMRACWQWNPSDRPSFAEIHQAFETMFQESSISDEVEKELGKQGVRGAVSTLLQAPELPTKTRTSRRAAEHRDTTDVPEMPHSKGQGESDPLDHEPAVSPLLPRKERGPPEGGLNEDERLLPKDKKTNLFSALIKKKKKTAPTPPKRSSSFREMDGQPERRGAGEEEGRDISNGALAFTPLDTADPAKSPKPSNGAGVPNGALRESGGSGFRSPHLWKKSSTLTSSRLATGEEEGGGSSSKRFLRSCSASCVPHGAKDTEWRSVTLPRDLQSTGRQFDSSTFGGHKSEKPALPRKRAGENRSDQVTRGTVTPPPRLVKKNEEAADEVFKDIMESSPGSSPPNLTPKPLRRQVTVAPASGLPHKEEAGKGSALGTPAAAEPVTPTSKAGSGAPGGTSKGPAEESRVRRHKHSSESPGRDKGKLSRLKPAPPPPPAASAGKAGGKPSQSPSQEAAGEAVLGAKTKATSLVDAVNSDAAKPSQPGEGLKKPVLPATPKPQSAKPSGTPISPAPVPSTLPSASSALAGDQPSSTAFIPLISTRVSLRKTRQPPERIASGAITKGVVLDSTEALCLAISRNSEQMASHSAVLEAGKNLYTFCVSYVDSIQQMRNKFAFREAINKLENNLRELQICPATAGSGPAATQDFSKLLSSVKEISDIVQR
# assay.explanation: KinaseProfiler kinase inhibition assay, Abl
# Assay type: biochemical
# condition.notes: 1 μM compound
Numbers only, in %.

Consider the reported inhibition at 1 µM for these compounds:
Cc1cc2c(F)c(Oc3ncnc(Nc4ccc(N5CCNCC5)cc4)c3C#N)ccc2[nH]1 ... -6
Cc1cc2c(F)c(Oc3cc(N4CCN(c5ccc(N)cc5F)CC4)ncn3)ccc2[nH]1 ... 13
CCN1CCN(c2ccc(Nc3ncnc(Oc4ccc5c(cc(C)n5C)c4F)c3C#N)cc2)CC1 ... -1

## Task Which value of inhibition at 1 µM has been reported for "CCN1CCN(c2ccc(Nc3ncnc(Oc4ccc5[nH]c(C)cc5c4F)c3C#N)cc2)CC1" in the records?
## Result 11
